# System: BT-549 breast
# test: NCI tumour cell line growth inhibition, 48 h
readoutKind: TGI (µM)
Just the number please, in µM, no unit attached.

chemicalStructure	u	TGI
COc1cc(OC)c(NC(=O)c2cc3ccccc3cc2O)cc1Cl	µM	66
COc1ccc(NC(=S)N/N=C(\C)c2nc3ncccc3[nH]2)cc1	µM	42.3
O=S(=O)(Nc1cc(Cl)ccc1Cl)c1ccc(-c2cnc(C3CC3)o2)cc1	µM	14.9

Now for a further molecule.
Field TGI (BT-549 breast), entry Cl/C(=C\C=Nc1ccc(I)cc1)c1ccc2ccccc2c1 : 47

###

Listed below: TGI values for each entry.
# Test system: A498 renal
# test: NCI tumour cell line growth inhibition, 48 h
Just the number please, in µM, no unit attached.

chemicalStructure	TGI (µM)
CC[C@]12C=CCN3CC[C@@]4(c5cc(Br)c(OC)cc5N(C)[C@H]4[C@@](O)(C(=O)N[C@@H](Cc4ccc(O)cc4)C(=O)OC)[C@@H]1O)[C@@H]32	40.8

Now for a further compound.
// sample C[C@]12CC[C@H](O)CC1=CC[C@@H]1[C@@H]2CC[C@]2(C)C(=N/O)/C(=C/c3ccc([N+](=O)[O-])cc3)C[C@@H]12 , its TGI was 11.7
